# target: Cytochrome P450 2C19 (Homo sapiens, UniProt P33261)
# Sequence (P33261 whole entry): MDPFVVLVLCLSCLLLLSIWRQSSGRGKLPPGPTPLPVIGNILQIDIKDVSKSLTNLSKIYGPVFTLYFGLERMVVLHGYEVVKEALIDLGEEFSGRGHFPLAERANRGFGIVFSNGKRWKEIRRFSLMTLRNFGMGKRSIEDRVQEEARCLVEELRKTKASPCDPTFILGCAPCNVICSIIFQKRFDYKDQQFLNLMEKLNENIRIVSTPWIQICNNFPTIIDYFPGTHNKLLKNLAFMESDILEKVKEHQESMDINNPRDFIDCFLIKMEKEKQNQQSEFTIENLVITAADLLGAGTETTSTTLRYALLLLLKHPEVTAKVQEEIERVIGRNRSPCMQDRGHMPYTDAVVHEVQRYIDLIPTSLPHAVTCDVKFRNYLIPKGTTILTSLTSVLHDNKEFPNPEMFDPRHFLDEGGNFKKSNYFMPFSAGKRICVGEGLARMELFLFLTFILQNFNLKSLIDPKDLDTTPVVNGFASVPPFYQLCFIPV
# test_details: Cytochrome panel assay with activity outcomes. Panel member name: p450-cyp2c19 Compounds with AC50 equal or less than 10 uM are considered active
# Assay type: functional
# protocol_conditions: read-out: AC50
AC50 reference

In the examples that follow, each entry is paired with its recorded AC50.
>>> test_result("COc1cccc(-c2nc(CS(=O)(=O)CC(=O)NCCCOC(C)C)c(C)o2)c1")
"17.8 µM (inconclusive)"
>>> test_result("CCCc1cc(=O)oc2cc(OCC(=O)N3CCc4ccccc43)ccc12")
"1 µM (inconclusive)"
>>> test_result("CCOCCN1CCC(OC(C)=O)C(C)C1 (centres undefined)")
"3.16 µM (inconclusive)"

Lab note: next molecule to report on.
Entry COc1c(N2CCN(C(=S)Nc3ccc(F)cc3)C(C)C2)c(F)cc2c(=O)c(C(=O)O)cn(C3CC3)c12 (centres undefined) : reported AC50 = ? 39.8 µM (inconclusive)

---

# target: Ubiquitin-conjugating enzyme E2 N (Homo sapiens);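 note: Dose-response confirmation in a TR-FRET assay detecting UBC13-driven polyubiquitin chain formation, inhibition measured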
# Sequence (P61088 whole entry): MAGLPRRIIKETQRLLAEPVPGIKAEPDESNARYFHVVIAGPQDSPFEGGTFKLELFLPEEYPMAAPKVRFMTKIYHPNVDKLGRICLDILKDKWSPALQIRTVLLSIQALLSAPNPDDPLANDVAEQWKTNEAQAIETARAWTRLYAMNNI
# Type: functional
Activity calls are given as the source filed them.
Give your call using only these classes: active, inactive

Solved entries (count: 2):
>>> class_name("CN(C)CCNC=C(C(=O)Nc1ccc(Cl)cc1Cl)C(=O)Nc1ccc(Cl)cc1Cl")
"inactive"
>>> class_name("CCN1CCN(CCNC(=O)c2ccc3nc(-c4cccc(C)c4)c(-c4cccc(C)c4)nc3c2)CC1")
"inactive"

Look up the recorded call for COc1cc2nc(NCCCN3CCN(C)CC3)n3nc(-c4ccccc4)nc3c2cc1OC in this test. active

Which outcome was entered for the compound C#CCOCCOCCOCCNc1nc(N2CCOCC2)nc(N2CCN(C(=O)CCCCCCCCCCNC(=O)[C@H]([C@@H](C)CC)n3cc(CCCCN=C(N)N)nn3)CC2)n1 in this test? inactive
